Experiment: Biodistribution of 99mTc complexes in rats
Assay type: in vivo, Australian Albino Wistar Rats
Conditions: rat, brain, rats, 3 min, read-out: biodistribution brain
Experimental: A typical method of radiolabelling of the chelator was achieved by dissolving the chelator in a basic solution of saline. The pH was then adjusted to approx. 6 with HCl. Excess stannous chloride was added to the resultant solution followed by one equivalent volume of sodium ^99m TcO4 (10-50 mCi/ml). Final concentration of the chelator was approx. 1 mg/ml. The efficacy of labelling was determined by ITLC-SG. For each product only one main radiochemical species was observed. […]
Kindly state tissue uptake at 0.05 h for each of the entries shown.
Number first, unit second.

// tissue uptake at 0.05 h value for CC(C)(C)c1ccc(O)c(NC(=O)CN(CCN(CC(=O)O)CC(=O)Nc2cc(C(C)(C)C)ccc2O)CC(=O)O)c1 : 0.12 %ID/g

Sure, the documented tissue uptake at 0.05 h for Nc1ccc(O)c(NC(=O)CN(CCN(CC(=O)O)CC(=O)Nc2cc(N)ccc2O)CC(=O)O)c1 is 0.16 %ID/g

// sample O=C(O)CN(CCN(CC(=O)O)CC(=O)Nc1ccccc1O)CC(=O)Nc1ccccc1O , its tissue uptake at 0.05 h was 0.06 %ID/g

The recorded tissue uptake at 0.05 h for O=C(O)CN(CCN(CC(=O)O)CC(=O)Nc1ccc(Cl)cc1O)CC(=O)Nc1ccc(Cl)cc1O is 0.06 %ID/g

Looking up O=C(O)CN(CCN(CC(=O)O)CC(=O)Nc1cc([N+](=O)[O-])ccc1O)CC(=O)Nc1cc([N+](=O)[O-])ccc1O , I found its tissue uptake at 0.05 h recorded as 0.09 %ID/g

----------
Test: Biodistribution of 99mTc complexes in rats
Type: in vivo, Australian Albino Wistar Rats
Details: rat, lungs, rats, 10 min, read-out: biodistribution lungs
EXPERIMENTAL_READOUT: tissue uptake at 10 min (%ID/g)
Respond with the bare value in %ID/g.

tissue uptake at 10 min in this record for CC(C)(C)c1ccc(O)c(NC(=O)CN(CCN(CC(=O)O)CC(=O)Nc2cc(C(C)(C)C)ccc2O)CC(=O)O)c1 [Compound 4] : 0.53

// field: tissue uptake at 10 min; key: Nc1ccc(O)c(NC(=O)CN(CCN(CC(=O)O)CC(=O)Nc2cc(N)ccc2O)CC(=O)O)c1 [Compound 5] ; value = 1.17

Reported tissue uptake at 10 min ( O=C(O)CN(CCN(CC(=O)O)CC(=O)Nc1ccccc1O)CC(=O)Nc1ccccc1O [Compound 1] ) = 0.46

Lab book: tissue uptake at 10 min of O=C(O)CN(CCN(CC(=O)O)CC(=O)Nc1ccc(Cl)cc1O)CC(=O)Nc1ccc(Cl)cc1O [Compound 2] noted as 0.48

For reference, reported tissue uptake at 10 min for O=C(O)CN(CCN(CC(=O)O)CC(=O)Nc1cc([N+](=O)[O-])ccc1O)CC(=O)Nc1cc([N+](=O)[O-])ccc1O [Compound 3] stands at 0.57

----------
Assay: Biodistribution of 67Ga complexes in mice
Assay type: in vivo, balb/c mice
Details: 1 min
EXPERIMENTAL_READOUT: biodistribution skin (% ID)
# number only, unit % ID dropped from output

Short answer for O=C(O)CN(CCN(CC(=O)O)CC(=O)Nc1ccc(Cl)cc1O)CC(=O)Nc1ccc(Cl)cc1O : biodistribution skin was 11.55

GET /value?item= Cc1cc(C)c(O)c(NC(=O)CN(CCN(CC(=O)O)CC(=O)Nc2cc(C)cc(C)c2O)CC(=O)O)c1 &field=biodistribution skin returns 13.91

Recorded result, CC(C)(C)c1ccc(O)c(NC(=O)CN(CCN(CC(=O)O)CC(=O)Nc2cc(C(C)(C)C)ccc2O)CC(=O)O)c1 , biodistribution skin: 11.94

Just so you know, measured biodistribution skin for O=C(O)CN(CCN(CC(=O)O)CC(=O)Nc1ccccc1O)CC(=O)Nc1ccccc1O came out at 11.72

----------
Give tissue uptake at 1 min for every item shown.
Assay: Biodistribution of 99mTc complexes in rats
Assay type: in vivo, Australian Albino Wistar Rats
Conditions: rat, liver, rats, 1 min, read-out: biodistribution liver
Please state the figure in %ID/g; there is no need to write the unit.

For O=C(O)CN(CCN(CC(=O)O)CC(=O)Nc1ccc(Cl)cc1O)CC(=O)Nc1ccc(Cl)cc1O [Compound 2] the compound record lists tissue uptake at 1 min as 6.28

Entry O=C(O)CN(CCN(CC(=O)O)CC(=O)Nc1cc([N+](=O)[O-])ccc1O)CC(=O)Nc1cc([N+](=O)[O-])ccc1O [Compound 3] , tissue uptake at 1 min reported as 1.61

Value of measured tissue uptake at 1 min for the entry CC(C)(C)c1ccc(O)c(NC(=O)CN(CCN(CC(=O)O)CC(=O)Nc2cc(C(C)(C)C)ccc2O)CC(=O)O)c1 [Compound 4] : 8.03

Consider O=C(O)CN(CCN(CC(=O)O)CC(=O)Nc1ccccc1O)CC(=O)Nc1ccccc1O [Compound 1] . Its measured tissue uptake at 1 min is 2.01

// field: tissue uptake at 1 min; key: Nc1ccc(O)c(NC(=O)CN(CCN(CC(=O)O)CC(=O)Nc2cc(N)ccc2O)CC(=O)O)c1 [Compound 5] ; value = 0.97

----------
Assay: Biodistribution of 99mTc complexes in rats
Format: in vivo, Australian Albino Wistar Rats
Conditions: rat, total git, rats, 10 min, read-out: biodistribution tot GIT
EXPERIMENTAL_READOUT: tissue uptake at 10 min (%ID/g)
Enter your answer as a number in %ID/g; do not include the unit.

Recorded result, CC(C)(C)c1ccc(O)c(NC(=O)CN(CCN(CC(=O)O)CC(=O)Nc2cc(C(C)(C)C)ccc2O)CC(=O)O)c1 [Compound 4] , tissue uptake at 10 min: 5.16

GET /value?item= O=C(O)CN(CCN(CC(=O)O)CC(=O)Nc1ccc(Cl)cc1O)CC(=O)Nc1ccc(Cl)cc1O [Compound 2] &field=tissue uptake at 10 min returns 3.18

Value of measured tissue uptake at 10 min for the entry O=C(O)CN(CCN(CC(=O)O)CC(=O)Nc1ccccc1O)CC(=O)Nc1ccccc1O [Compound 1] : 1.22

Item: Nc1ccc(O)c(NC(=O)CN(CCN(CC(=O)O)CC(=O)Nc2cc(N)ccc2O)CC(=O)O)c1 [Compound 5] | tissue uptake at 10 min: 0.27

----------
Assay: Biodistribution of 99mTc complexes in mice
Assay type: in vivo, Balb/c mice
Details: 1 min
EXPERIMENTAL_READOUT: biodistribution skin (% Injected dose)
Provide the reading as a plain figure in % Injected dose.

// Cc1cc(C)c(O)c(NC(=O)CN(CCN(CC(=O)O)CC(=O)Nc2cc(C)cc(C)c2O)CC(=O)O)c1 : biodistribution skin value = 8.13

molecule O=C(O)CN(CCN(CC(=O)O)CC(=O)Nc1ccccc1O)CC(=O)Nc1ccccc1O , biodistribution skin observed: 19.66

Consider O=C(O)CN(CCN(CC(=O)O)CC(=O)Nc1ccc(Cl)cc1O)CC(=O)Nc1ccc(Cl)cc1O . Its measured biodistribution skin is 13.37

Lab note: CC(C)(C)c1ccc(O)c(NC(=O)CN(CCN(CC(=O)O)CC(=O)Nc2cc(C(C)(C)C)ccc2O)CC(=O)O)c1 gave biodistribution skin of 8.94

Reported biodistribution skin for Nc1ccc(O)c(NC(=O)CN(CCN(CC(=O)O)CC(=O)Nc2cc(N)ccc2O)CC(=O)O)c1 was 18.09

----------
Experiment: Biodistribution of 99mTc complexes in rats
Type: in vivo, Australian Albino Wistar Rats
Details: rat, muscle, rats, 1 min, read-out: biodistribution muscle
Field: tissue uptake at 1 min. Provide a value for each of the compounds that follow.

Field tissue uptake at 1 min (entry O=C(O)CN(CCN(CC(=O)O)CC(=O)Nc1ccc(Cl)cc1O)CC(=O)Nc1ccc(Cl)cc1O ) reads 0.24 %ID/g

So, Nc1ccc(O)c(NC(=O)CN(CCN(CC(=O)O)CC(=O)Nc2cc(N)ccc2O)CC(=O)O)c1 ? Its tissue uptake at 1 min was 0.3 %ID/g

The reported tissue uptake at 1 min of the compound CC(C)(C)c1ccc(O)c(NC(=O)CN(CCN(CC(=O)O)CC(=O)Nc2cc(C(C)(C)C)ccc2O)CC(=O)O)c1 was 0.29 %ID/g

Entry O=C(O)CN(CCN(CC(=O)O)CC(=O)Nc1cc([N+](=O)[O-])ccc1O)CC(=O)Nc1cc([N+](=O)[O-])ccc1O — recorded tissue uptake at 1 min = 0.24 %ID/g

Record O=C(O)CN(CCN(CC(=O)O)CC(=O)Nc1ccccc1O)CC(=O)Nc1ccccc1O . Reported tissue uptake at 1 min: 0.27 %ID/g

----------
Assay: Biodistribution of compound No. 6 in mice (Table 6)
Format: in vivo, Balb/c mice
Conditions: mouse, thymus, 5 min, read-out: biodistribution thymus
EXPERIMENTAL_READOUT: tissue uptake at 5 min (%ID/g)
The figure you give is taken to be in %ID/g; do not add the unit.

Lab note: measured tissue uptake at 5 min of Cc1cc(C)c(O)c(NC(=O)CN(CCN(CC(=O)O)CC(=O)Nc2cc(C)cc(C)c2O)CC(=O)O)c1 [Compound 6] was 2.5

Origin of values: patent US5807535A
